Target: T1, human IL-23 (Sino Biological, CT048-H08H) (human, UniProt Q9NPF7 20-189; P29460 23-328)
T1 sequence (looked up) 1: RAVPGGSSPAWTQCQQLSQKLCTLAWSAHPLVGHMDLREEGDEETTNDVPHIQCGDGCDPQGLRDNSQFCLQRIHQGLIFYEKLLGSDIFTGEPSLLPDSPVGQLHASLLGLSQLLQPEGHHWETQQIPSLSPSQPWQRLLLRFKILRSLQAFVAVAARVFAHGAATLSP
T1 sequence (looked up) 2: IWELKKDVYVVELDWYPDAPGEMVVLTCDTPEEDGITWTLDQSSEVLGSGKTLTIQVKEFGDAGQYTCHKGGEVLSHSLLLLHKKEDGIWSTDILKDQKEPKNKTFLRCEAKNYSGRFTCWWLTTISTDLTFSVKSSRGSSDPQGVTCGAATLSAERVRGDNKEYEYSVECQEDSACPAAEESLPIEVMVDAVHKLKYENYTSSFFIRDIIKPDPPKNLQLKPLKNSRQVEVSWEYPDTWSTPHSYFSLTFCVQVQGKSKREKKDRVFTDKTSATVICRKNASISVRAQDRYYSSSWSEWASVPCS
Test: cell-based or functional assay
Each record here notes measured Activity in inhibiting proliferation of BaF3-IL-23R cells (IC50, nM).
Give the value in nM but do not write nM after it.

# count of solved cases: 2
Hu38-3 (antibody, human IgG1, kappa, L234A L235A, V domains shown, humanized mAb38, IgG1/kappa) VH: EFQLVQSGAEVKKPGASVKVSCKASGYTFTDHNMNWVRQAPGQRLEWMGVINPNYGTTTYNQKFKGRVTITVDTSASTAYMELSSLRSEDTAVYYCARRGFAYWGQGTLVTVSS VL: DIVITQTPLSLPVTPGEPASISCRSSKSLLYKDGKTYLNWFLQRPGQSPQLLIYLMSTRASGVPDRFSGSGSGTDLTLKISRVEAEDVGVYYCQQIAEYPFTFGSGTKLEIKR = 0.174
Hu38-4 (antibody, human IgG1, kappa, L234A L235A, V domains shown, humanized mAb38, IgG1/kappa) VH: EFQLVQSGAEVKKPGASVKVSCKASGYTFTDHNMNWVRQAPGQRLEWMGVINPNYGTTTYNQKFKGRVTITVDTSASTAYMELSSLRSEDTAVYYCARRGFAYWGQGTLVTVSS VL: DIVMTQTPLSLPVTPGEPASISCRSSKSLLYKDGKTYLNWFLQKPGQSPQLLIYLMQTRASGVPDRFSGSGSGTDLTLKISRVEAEDVGVYYCQQIAEYPFTFGSGTKLEIKR = 0.122

Lab note: next binder to report on.
# input binder: Hu38-1 (antibody, human IgG1, kappa, L234A L235A, V domains shown, humanized mAb38, IgG1/kappa) VH: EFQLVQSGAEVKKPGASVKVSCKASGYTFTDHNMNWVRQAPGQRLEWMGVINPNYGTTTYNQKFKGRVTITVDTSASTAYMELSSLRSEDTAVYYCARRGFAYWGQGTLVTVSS VL: DIVMTQTPLSLPVTPGEPASISCRSSKSLLYKDGKTYLNWYLQKPGQSPQLLIYLMSTRASGVPDRFSGSGSGTDFTLKISRVEAEDVGVYYCQQIAEYPFTFGSGTKLEIKR ; wanted: its Activity in inhibiting proliferation of BaF3-IL-23R cells (IC50, nM)
0.168
